ASSAY_INFO: Cmax in rat brain at 10 mg/kg, po after 6 hrs
Type: ADME, organism-based
Set-up: dose 10 mg/kg, route oral
PARAMETER_MEASURED: Cmax (µM)

molecule="c1ccc(C2CNCc3cc(OCCCN4CCOCC4)ncc32)cc1 (stereo unspecified)" quantitative_result=5.56

* * *

# collection of pKi values tested on Sodium-dependent serotonin transporter (Homo sapiens, UniProt P31645)
# Sequence (P31645 whole entry): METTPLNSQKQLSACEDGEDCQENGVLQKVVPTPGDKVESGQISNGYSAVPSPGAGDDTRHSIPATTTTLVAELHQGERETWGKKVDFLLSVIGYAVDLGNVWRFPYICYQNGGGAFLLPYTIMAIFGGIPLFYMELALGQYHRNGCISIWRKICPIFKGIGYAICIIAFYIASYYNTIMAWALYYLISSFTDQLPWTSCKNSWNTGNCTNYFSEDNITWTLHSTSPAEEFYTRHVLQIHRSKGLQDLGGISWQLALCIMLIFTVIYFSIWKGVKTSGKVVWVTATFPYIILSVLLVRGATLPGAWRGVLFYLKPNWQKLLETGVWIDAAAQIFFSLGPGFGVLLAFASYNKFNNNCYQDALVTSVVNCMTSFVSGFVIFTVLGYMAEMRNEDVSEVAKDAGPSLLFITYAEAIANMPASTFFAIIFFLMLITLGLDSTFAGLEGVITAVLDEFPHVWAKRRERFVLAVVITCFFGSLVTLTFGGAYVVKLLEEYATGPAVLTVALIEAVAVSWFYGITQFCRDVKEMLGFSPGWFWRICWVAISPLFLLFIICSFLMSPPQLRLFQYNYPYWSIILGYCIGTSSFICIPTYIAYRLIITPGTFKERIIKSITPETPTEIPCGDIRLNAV
pKi: −log10 of the molar value.
PARAMETER_MEASURED: pKi

compound="CC(C)N1CCC(COc2cc3c(cn2)C(c2ccc(Cl)c(Cl)c2)CNC3)CC1 (configuration not stated)" quantitative_result=7.43
compound="CN1Cc2cc(OCCCN3CCCCC3)ncc2C(c2ccc(Cl)c(F)c2)C1 (configuration not stated)" quantitative_result=6.83

* * *

ASSAY_INFO: Drug level in rat brain at 10 mg/kg, po after 24 hrs
Format: ADME, organism-based
Set-up: dose 10 mg/kg, route oral
CONDITION_SUMMARY: read-out: Drug uptake
PARAMETER_MEASURED: concentration at 24 h

compound="c1ccc(C2CNCc3cc(OCCCN4CCOCC4)ncc32)cc1 (stereo unspecified)" result="> 600 nM"

* * *

List of pKi values.
TEST_TARGET: Sodium-dependent serotonin transporter (Rattus norvegicus, UniProt P31652)
Sequence (P31652 whole entry): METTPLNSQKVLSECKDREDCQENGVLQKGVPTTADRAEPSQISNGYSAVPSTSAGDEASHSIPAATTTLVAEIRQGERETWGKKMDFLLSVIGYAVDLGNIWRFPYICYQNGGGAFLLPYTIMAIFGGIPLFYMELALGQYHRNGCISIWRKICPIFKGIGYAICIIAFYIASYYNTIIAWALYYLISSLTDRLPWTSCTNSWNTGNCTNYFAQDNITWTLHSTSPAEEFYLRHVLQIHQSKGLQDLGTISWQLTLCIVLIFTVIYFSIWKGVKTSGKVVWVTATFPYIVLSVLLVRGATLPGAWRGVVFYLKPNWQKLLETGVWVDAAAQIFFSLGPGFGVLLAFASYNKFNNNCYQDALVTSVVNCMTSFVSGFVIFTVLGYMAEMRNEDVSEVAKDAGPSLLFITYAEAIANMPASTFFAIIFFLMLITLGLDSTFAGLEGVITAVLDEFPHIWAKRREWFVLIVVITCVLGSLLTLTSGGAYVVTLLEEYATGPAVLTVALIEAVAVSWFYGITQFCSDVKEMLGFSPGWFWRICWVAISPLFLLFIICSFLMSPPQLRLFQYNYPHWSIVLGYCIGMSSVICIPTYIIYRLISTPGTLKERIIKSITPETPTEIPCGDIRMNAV
ASSAY_INFO: Binding affinity to rat SERT
pKi: −log10 of the molar value.
PARAMETER_MEASURED: pKi

compound="CN1Cc2cc(OCCCN3CCCCC3)ncc2C(c2ccc(Cl)c(F)c2)C1 (configuration not stated)" test_target="Sodium-dependent serotonin transporter (Rattus norvegicus, UniProt P31652)" parameter_measured=pKi quantitative_result=7.59
compound="CC(C)N1CCC(COc2cc3c(cn2)C(c2ccc(Cl)c(Cl)c2)CNC3)CC1 (configuration not stated)" test_target="Sodium-dependent serotonin transporter (Rattus norvegicus, UniProt P31652)" parameter_measured=pKi quantitative_result=7.74

* * *

TEST_TARGET: Histamine H3 receptor (Homo sapiens, UniProt Q9Y5N1)
Sequence (Q9Y5N1 whole entry): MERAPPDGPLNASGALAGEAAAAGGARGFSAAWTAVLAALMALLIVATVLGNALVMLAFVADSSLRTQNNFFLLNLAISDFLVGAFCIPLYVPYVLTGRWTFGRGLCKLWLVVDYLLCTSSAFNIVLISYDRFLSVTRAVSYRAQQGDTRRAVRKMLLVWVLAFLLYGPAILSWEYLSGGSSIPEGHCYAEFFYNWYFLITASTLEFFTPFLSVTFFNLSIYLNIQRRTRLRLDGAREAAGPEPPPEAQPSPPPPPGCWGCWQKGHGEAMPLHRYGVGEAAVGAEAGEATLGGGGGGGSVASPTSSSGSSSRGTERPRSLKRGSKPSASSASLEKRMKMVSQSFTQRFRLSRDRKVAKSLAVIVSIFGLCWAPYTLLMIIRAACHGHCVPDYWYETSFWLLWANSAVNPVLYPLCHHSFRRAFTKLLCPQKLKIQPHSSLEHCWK
ASSAY_INFO: Antagonist activity at human histamine H3 receptor expressed in SK-N-MC cells assessed as effect on cAMP accumulation
Format: functional, cell-based
CONDITION_SUMMARY: read-out: pA2 (converted)
List of Kb values.
PARAMETER_MEASURED: Kb (nM)

molecule="COc1ccc(C2CNCc3cc(OCCCN4CCCCC4)ncc32)cc1 (stereo not given)" parameter_measured=Kb quantitative_result=5.89
molecule="CCN(CC)CCCOc1cc2c(cn1)C(c1ccc(Cl)c(Cl)c1)CNC2 (stereo not given)" parameter_measured=Kb quantitative_result=14.1
molecule="Clc1ccccc1C1CNCc2cc(OCCCN3CCCCC3)ncc21 (stereo not given)" parameter_measured=Kb quantitative_result=1.05
molecule="CN1Cc2cc(OCCCN3CCCCC3)ncc2C(c2ccccc2)C1 (stereo not given)" parameter_measured=Kb quantitative_result=21.4
molecule="Clc1ccc(C2CNCc3cc(OCCCN4CCCCC4)ncc32)cc1Cl (stereo not given)" parameter_measured=Kb quantitative_result=11.2

* * *

ASSAY_INFO: Cmax in rat plasma at 10 mg/kg, po after 1 hr
Assay type: ADME, organism-based
Set-up: dose 10 mg/kg, route oral
PARAMETER_MEASURED: Cmax (nM)

molecule="c1ccc(C2CNCc3cc(OCCCN4CCOCC4)ncc32)cc1 (stereo unspecified)" quantitative_result=220
